Biological target: T1, Recombinant Human DLL4 (R&D Systems Cat#1506-D4/CF) (human, UniProt Q9NR61 27-524)
T1 construct: Bought recombinant protein; also called delta-like protein 4; rHuman DLL4
Assay: ECL multispot (MSD) binding assay, DLL4 spotted on plate, purified Fab in solution; Fab concentration not given
measured_metric: ECL signal

// Fab VH1-46_IGHD6-6*01_IGHJ1*01 S102A/S103P/S104F/H111F (APFF) & L6_IGKJ1*01 S28A (Fab, V domains shown, Fab expressed in E. coli: VH joined to CH1 (Plasmid A, His6 and Flag tags), VL joined to kappa CL (Plasmid C); also called APFF S28A) VH: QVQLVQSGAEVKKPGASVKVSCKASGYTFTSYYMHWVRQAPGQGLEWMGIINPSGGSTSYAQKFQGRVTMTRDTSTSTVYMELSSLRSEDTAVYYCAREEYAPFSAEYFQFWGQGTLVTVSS VL: EIVLTQSPATLSLSPGERATLSCRASQAVSSYLAWYQQKPGQAPRLLIYDASNRATGIPARFSGSGSGTDFTLTISSLEPEDFAVYYCQQRSNWPPWTFGQGTKVEIKR : ECL signal value = 157000

// Fab VH1-46_IGHD6-6*01_IGHJ1*01 S102A/S103P/S104F/H111F (APFF) & L6_IGKJ1*01 S30L (Fab, V domains shown, Fab expressed in E. coli: VH joined to CH1 (Plasmid A, His6 and Flag tags), VL joined to kappa CL (Plasmid C); also called APFF S30L) VH: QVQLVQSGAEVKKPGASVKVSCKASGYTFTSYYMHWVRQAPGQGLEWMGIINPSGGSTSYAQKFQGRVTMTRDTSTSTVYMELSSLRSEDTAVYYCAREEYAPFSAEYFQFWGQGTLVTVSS VL: EIVLTQSPATLSLSPGERATLSCRASQSVLSYLAWYQQKPGQAPRLLIYDASNRATGIPARFSGSGSGTDFTLTISSLEPEDFAVYYCQQRSNWPPWTFGQGTKVEIKR : ECL signal value = 199000

// Fab VH1-46_IGHD6-6*01_IGHJ1*01 S102A/S103P/S104F/H111F (APFF) & L6_IGKJ1*01 S28T (Fab, V domains shown, Fab expressed in E. coli: VH joined to CH1 (Plasmid A, His6 and Flag tags), VL joined to kappa CL (Plasmid C); also called APFF S28T) VH: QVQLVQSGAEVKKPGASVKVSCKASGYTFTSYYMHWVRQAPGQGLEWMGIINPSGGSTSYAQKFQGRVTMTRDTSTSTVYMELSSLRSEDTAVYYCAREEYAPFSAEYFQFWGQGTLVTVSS VL: EIVLTQSPATLSLSPGERATLSCRASQTVSSYLAWYQQKPGQAPRLLIYDASNRATGIPARFSGSGSGTDFTLTISSLEPEDFAVYYCQQRSNWPPWTFGQGTKVEIKR : ECL signal value = 159000

// Fab VH1-46_IGHD6-6*01_IGHJ1*01 S102A/S103P/S104F/H111F (APFF) & L6_IGKJ1*01 S28I (Fab, V domains shown, Fab expressed in E. coli: VH joined to CH1 (Plasmid A, His6 and Flag tags), VL joined to kappa CL (Plasmid C); also called APFF S28I) VH: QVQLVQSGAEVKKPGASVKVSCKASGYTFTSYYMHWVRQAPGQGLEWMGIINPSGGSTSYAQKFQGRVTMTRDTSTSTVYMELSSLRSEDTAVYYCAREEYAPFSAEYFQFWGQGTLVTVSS VL: EIVLTQSPATLSLSPGERATLSCRASQIVSSYLAWYQQKPGQAPRLLIYDASNRATGIPARFSGSGSGTDFTLTISSLEPEDFAVYYCQQRSNWPPWTFGQGTKVEIKR : ECL signal value = 106000
